Where do the numbers come from? From the supplement of paper PMC11451515.

tested on: P12-Ichikawa; test: cell viability relative to DMSO control; higher = less cytotoxic; conditions: RPMI 5 mM glucose + 10% FBS; 48 h; 0.0632 µM
cell viability overview

>  <TEST_SMILES>
COc1cc2c(cc1OC)CC(=O)N(CCCN(C)C[C@H]1Cc3cc(OC)c(OC)cc31)CC2.Cl

>  <EXPERIMENTAL_SYSTEM>
P12-Ichikawa

>  <UNIT_TAG>
%

>  <cell viability>
109

$$$$
>  <TEST_SMILES>
CNC[C@H](O)c1ccc(O)c(O)c1

>  <EXPERIMENTAL_SYSTEM>
P12-Ichikawa

>  <UNIT_TAG>
%

>  <cell viability>
97.9

$$$$
>  <TEST_SMILES>
CN(NC(=O)CC(=O)NN(C)C(=S)c1ccccc1)C(=S)c1ccccc1

>  <EXPERIMENTAL_SYSTEM>
P12-Ichikawa

>  <UNIT_TAG>
%

>  <cell viability>
56.8

$$$$
>  <TEST_SMILES>
C[C@@]12C[C@@]3(O)O[C@@H](O1)[C@]1(COC(=O)c4ccccc4)[C@H]3C[C@@]12O[C@@H]1O[C@H](CO)[C@@H](O)[C@H](O)[C@H]1O

>  <EXPERIMENTAL_SYSTEM>
P12-Ichikawa

>  <UNIT_TAG>
%

>  <cell viability>
118

$$$$
>  <TEST_SMILES>
COc1ccc(C(C)=O)c(O)c1

>  <EXPERIMENTAL_SYSTEM>
P12-Ichikawa

>  <UNIT_TAG>
%

>  <cell viability>
128

$$$$
>  <TEST_SMILES>
CN1C[C@H]2c3ccccc3Oc3ccc(Cl)cc3[C@@H]2C1

>  <EXPERIMENTAL_SYSTEM>
P12-Ichikawa

>  <UNIT_TAG>
%

>  <cell viability>
88.4

$$$$
>  <TEST_SMILES>
O=C(Nc1c(Cl)cncc1Cl)c1ccc(OC(F)F)c(OCC2CC2)c1

>  <EXPERIMENTAL_SYSTEM>
P12-Ichikawa

>  <UNIT_TAG>
%

>  <cell viability>
122

$$$$
>  <TEST_SMILES>
CCn1c(-c2nonc2N)nc2cnc(Oc3cccc(NC(=O)c4ccc(OCCN5CCOCC5)cc4)c3)cc21

>  <EXPERIMENTAL_SYSTEM>
P12-Ichikawa

>  <UNIT_TAG>
%

>  <cell viability>
107

$$$$
>  <TEST_SMILES>
Cc1cn(-c2cc(NC(=O)c3ccc(C)c(Nc4nccc(-c5cccnc5)n4)c3)cc(C(F)(F)F)c2)cn1

>  <EXPERIMENTAL_SYSTEM>
P12-Ichikawa

>  <UNIT_TAG>
%

>  <cell viability>
113

$$$$
